Source: ChEMBL document CHEMBL1151424

- System: Bacillus anthracis
- TEST DESCRIPTION: Inhibition of histidine-tagged Bacillus anthracis Sterne recombinant DHFR expressed in Escherichia coli BL21 Star (DE3)pLysS up to 3 mins
- REPORTED CONDITIONS: BL21, 0.05 h
MEASUREMENT TYPE: pIC50
Answer as the number alone; pIC50 is minus log10 of concentration in mol/L.

Worked examples follow.
| COMPOUND | TESTED ON | pIC50 |
| --- | --- | --- |
| COc1cc(Cc2cnc(N)nc2N)cc(/C=C/C(=O)N2N=Cc3ccccc3C2c2ccccc2)c1OC (stereo not given) | Bacillus anthracis | 7.34 |
| CCC1c2ccccc2C=NN1C(=O)/C=C/c1cc(Cc2cnc(N)nc2N)cc(OC)c1OC (stereo not given) | Bacillus anthracis | 7.02 |
| COc1cc(Cc2cnc(N)nc2N)cc(/C=C/C(=O)N2N=Cc3ccccc3C2c2ccccc2)c1OCCN1CCOCC1 (stereo not given) | Bacillus anthracis | 6.77 |
| CCCC1c2ccccc2C=NN1C(=O)/C=C/c1cc(Cc2cnc(N)nc2N)cc(O)c1OC (stereo not given) | Bacillus anthracis | 7.27 |
| COc1ncc(C2c3ccccc3C=NN2C(=O)/C=C/c2cc(Cc3cnc(N)nc3N)cc(OC)c2OC)c(OC)n1 (stereo not given) | Bacillus anthracis | 6.22 |
| COc1cc(Cc2cnc(N)nc2N)cc(/C=C/C(=O)N2N=Cc3ccccc3C2C2CCCCC2)c1OC (stereo not given) | Bacillus anthracis | 6.59 |
| COc1cc(Cc2cnc(N)nc2N)cc(/C=C/C(=O)N2N=Cc3ccccc3C2CCCO)c1OC (stereo not given) | Bacillus anthracis | 6.92 |
| COc1cc(Cc2cnc(N)nc2N)cc(/C=C/C(=O)N2N=Cc3ccccc3C2c2ccc(CO)cc2)c1O (stereo not given) | Bacillus anthracis | 7.16 |

Proceeding to the next compound to report its pIC50.
*Q* Annotate the compound COc1cc(Cc2cnc(N)nc2N)cc(/C=C/C(=O)N2N=Cc3ccccc3C2c2ccc(C)cc2)c1OC (stereo not given) with its measured pIC50.
*A* 6.82
